Origin of measurements: patent US12590062B2

# SUBJECT_OF_TEST: PD-1/PD-L1 interaction (Homo sapiens, UniProt Q9NZQ7)
# Construct: expressed in transfected cells; host or cells: CHO cells (aAPC-PD-L1) co-cultured with Jurkat cells overexpressing PD-1 and an NFAT-luciferase reporter
# Sequence (Q9NZQ7 19-290): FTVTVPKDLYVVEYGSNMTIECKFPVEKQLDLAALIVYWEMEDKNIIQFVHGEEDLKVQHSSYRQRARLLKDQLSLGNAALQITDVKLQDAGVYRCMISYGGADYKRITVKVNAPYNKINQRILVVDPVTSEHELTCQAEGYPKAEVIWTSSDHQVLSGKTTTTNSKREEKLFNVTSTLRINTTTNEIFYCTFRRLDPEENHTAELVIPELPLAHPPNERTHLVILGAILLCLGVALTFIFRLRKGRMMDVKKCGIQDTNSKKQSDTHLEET
# ASSAY_METHOD_TEXT: PD-1/PD-L1 NFAT reporter co-culture assay
# Format: cell-based
# EXPERIMENTAL_CONDITIONS: Jurkat PD-1 NFAT-luciferase cells co-cultured with aAPC-PD-L1 CHO cells, 6 hrs at 37° C.; read-out: EC50 NFAT Luciferase
MEASURE_NAME: EC50 (µM)

{"columns": ["COMPOUND", "EC50 / µM"],
 "data": [
  ["N#CCOc1cc(-c2cccc(-c3cccc4c3CC[C@@H]4Oc3nc(OCC#N)c(CNC[C@@H]4CCC(=O)N4)cc3Cl)c2Cl)ccc1CNC[C@@H]1CCC(=O)N1 [Example 653]", 0.093]
]}

[P] Cc1c(COc2cc(OCc3cncc(C#N)c3)c(CNC[C@@H](O)CC(=O)O)cc2Cl)cccc1-c1cccc(-c2ccc(O[C@H]3CCCN(CCO)C3)cc2)c1C [Example 354]
[Q] Cc1c(COc2cc(OCc3cncc(C#N)c3)c(CNC[C@@H](O)CC(=O)O)cc2Cl)cccc1-c1cccc(-c2ccc(CNC[C@@H](O)CC(=O)O)c(-c3ccccc3)c2)c1C [Example 514]
Larger number for EC50: P , or Q ? Returns: label corresponding to the selected item. P
(P: 1.88 µM, Q: 0.156 µM)

* * *

# SUBJECT_OF_TEST: PD-L1 (Homo sapiens)
# Construct: determine if they can specifically dimerize the extracellular domains of PD-L1
# Sequence (Q9NZQ7 19-238 limits assumed): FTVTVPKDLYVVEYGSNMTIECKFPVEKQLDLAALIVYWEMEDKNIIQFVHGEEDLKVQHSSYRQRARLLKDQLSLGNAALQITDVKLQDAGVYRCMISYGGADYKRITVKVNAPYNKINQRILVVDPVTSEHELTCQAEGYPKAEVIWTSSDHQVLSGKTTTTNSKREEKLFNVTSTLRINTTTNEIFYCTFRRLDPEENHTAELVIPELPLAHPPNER
# Sequence (Q9NZQ7 19-238 limits assumed): as above
# ASSAY_METHOD_TEXT: PD-L1/PD-L1 dimerization biochemical protein-protein interaction assay (ALPHA)
# Assay type: binding
# EXPERIMENTAL_CONDITIONS: compound-induced PD-L1 dimerization, head prints '1 nM' (0.5 nM His-tagged PD-L1 and 0.5 nM FLAG-tagged PD-L1), read-out: AC50 PDL1 Dimer Alpha 1 nM
MEASURE_NAME: AC50 (nM)

The cases that follow already have their AC50 on record.
{"columns": ["CHEMICAL_STRUCTURE", "AC50 (nM)"],
 "data": [
  ["COc1nc(-c2cccc(-c3cccc(-c4ccc5c(ccn5CCN(C)C)c4)c3Cl)c2Cl)ccc1CNC[C@@H]1CCC(=O)N1", 480],
  ["Cc1c(COc2cc(OCc3cncc(C#N)c3)c(CN[C@@H](C)C(=O)O)cc2Cl)cccc1-c1cccc(-c2ccc(OCCN[C@@H](C)C(=O)O)c([N+](=O)[O-])c2)c1C", 145]
]}

[1] Cc1c(COc2cc(OCc3cncc(C#N)c3)c(CN[C@@](C)(CO)C(=O)O)cc2Cl)cccc1-c1cccc(-c2ccc(CN[C@H]3CCCNC3=O)cc2)c1C
[2] Cc1c(COc2cc(OCc3cncc(C#N)c3)c(CNC[C@@H](O)CC(=O)O)cc2Cl)cccc1-c1cccc(-c2ccc3sc(CNC[C@@H](O)CC(=O)O)cc3c2)c1C
Lowest AC50? choose 1 or 2 Selection: enter the item's label. 2
(2: 81.2 nM, 1: 215 nM)

[A] Cc1c(COc2cc(OCc3cncc(C#N)c3)c(CNCC3(O)CC3)cc2Cl)cccc1-c1cccc(-c2ccc(OCCNCCO)cc2)c1C
[B] COc1nc(-c2cccc(-c3cccc4c3CC[C@@H]4Oc3nc(OC)c(CNC[C@@H](O)CC(=O)O)cc3Cl)c2Cl)ccc1CNC[C@@H]1CCC(=O)N1
In the pair A and B , the larger recorded AC50 belongs to which? Your choice should be expressed through its label. A
